# Tested on: K562 SF3B1 K700E vs K562 SF3B1 WT
# Method Notes: surviving fraction ratio K562 SF3B1 K700E / K562 SF3B1 WT (each relative to DMSO); higher = less selective killing of SF3B1 K700E cells
# Condition Description: 500nM; 5 days
Counter-ions that a name gives are not always drawn.
# surviving fraction ratio K562 SF3B1 K700E / K562 SF3B1 WT listing for each entry below
Measurement Type: surviving fraction ratio K562 SF3B1 K700E / K562 SF3B1 WT

{"columns": ["Molecule", "Observed Measurement"],
 "data": [
  ["Oc1ccc(/C=C/c2cc(O)cc(O)c2)cc1", 0.916],
  ["CN(C)C/C=C/C(=O)Nc1cc2c(Nc3ccc(F)c(Cl)c3)ncnc2cc1O[C@H]1CCOC1", 0.666],
  ["Cn1c(=O)n(-c2ccc(C(C)(C)C#N)cc2)c2c3cc(-c4cnc5ccccc5c4)ccc3ncc21", 1.28],
  ["Nc1ccn([C@@H]2O[C@H](CO)[C@@H](O)C2(F)F)c(=O)n1 [gemcitabine.HCl]", 1.1],
  ["CN(C)CC[C@H](CSc1ccccc1)Nc1ccc(S(=O)(=O)NC(=O)c2ccc(N3CCN(Cc4ccccc4-c4ccc(Cl)cc4)CC3)cc2)cc1[N+](=O)[O-]", 0.908],
  ["C[C@@H]1CN(CC(=O)Nc2ccc3c(c2)Cc2cccc(-c4cc(=O)cc(N5CCOCC5)o4)c2S3)C[C@H](C)O1", 0.878],
  ["CC(=O)NCC(=O)N1[C@@H]2CC[C@H]1c1ccc(Nc3ncc(C(F)(F)F)c(NC4CCC4)n3)cc12", 1.18],
  ["COc1cc2c(cc1O)CC[C@@H]1[C@@H]2CC[C@]2(C)[C@@H](O)CC[C@@H]12", 0.626]
]}
